- study-target: Mouse LRP-8 expressed on HEK293 cells (mouse) (UniProt Q924X6)
- run-description: cell-based ECL-MSD, 10 ug/ml Ab, mouse-LRP-8-HEK293
assay-metric: fold over mIgG control (fold)
Report only the number, with the unit fold understood.

INSERT INTO results (binder, assay_metric, observed) VALUES
  ('anti-LRP-8 ML199-11H1.5B2 murine antibody (muFc) (antibody, V domains shown) VH: EVQLVESGGDLVKPGGSLKLSCAASRFTFSNYGMSWVRQTPDKRLEWVATISSGGRYTYYPDSVKGRFTISRDNAKNTLYLQMSSLRSEDTAMYYCARDYLYAMDYWGQGTSVTVSS VL: DVVMTQTPLSLPVSLGDQASISCRSSQSLVYSNGNTYLHWYLQKPGQSPKVLMYKVSNRFSGVSDRFSGSGSGTDFTLKISRVEAEDLGVYFCSQSTHVPLTFGAGTKLELK', 'fold over mIgG control', 23.1),
  ('anti-LRP-8 antibody ab58216 (mFc) (antibody, V domains shown) VH: EVHLQQSGPEVVKPGASVKISCKASGYIISGYFLNWVKQSHGKSLEWVGRINPYSGDTFFNQKFKGKATLTVDKSSNTAHMELRSLTSEDSAVFYCAREDIGRFAYWGQGTLVTVSA VL: DVLMTQTPLSLPVSLGDQASISCRSSQTIVHSNGNTYLEWYLQKPGQSPKLLIYKVSNRFSGVPDRFSGSGSGTDFTLKISRVEAEDLGVYYCFQGSHAPPTFGGGTKLEIK', 'fold over mIgG control', 19.2),
  ('anti-LRP-8 ML201-8F3.3D7 murine antibody (muFc) (antibody, V domains shown) VH: EVQLVESGGDLVKPGGSLKLSCAASRFTFSNFGMSWVRQTPDKRLEWVATISSGGRYTYYPDSVKGRFTISRDNAKNTLYLQMSSLRSEDTAMYYCARDYLYAMDYWGQGTSVTVSS VL: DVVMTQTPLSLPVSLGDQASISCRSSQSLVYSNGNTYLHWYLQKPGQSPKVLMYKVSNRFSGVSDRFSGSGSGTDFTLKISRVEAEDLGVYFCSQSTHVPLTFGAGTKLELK', 'fold over mIgG control', 21.1);

Let us move to another entry and its fold over mIgG control.
What does the data say about its fold over mIgG control? Entry: anti-LRP-8 ML201-2B4.2B1.2H10 murine antibody (muFc) (antibody, V domains shown) VH: DVKLVASGGGLVKPGGSLKLSCAASGFTLSRYAMSWVRQTPEKRLEWVAYIRNGGDYIYYADTVKGRFTISRDNARNTLYLQMSSLKSEDTAMYYCTREGSYYNFDYWGQGTTLTVSS VL: DVLMTQTPLSLPVSLGDQASISCRSSQSIVHSNGNTYLEWYLQKPGQSPNLLIFKVSNRFSGVPDRFIGSGSGTDFTLKISRVEAEDLGVYYCFQGSHVPWTFGGGTKLEIK
1.2

This collection of values is drawn from patent US20160200813A1.
